Where these numbers come from: paper PMC5378893

- TARGET_OF_ASSAY: T1, extracellular domain (ECD) of human epidermal growth factor receptor 2 (HER2) (Homo sapiens, UniProt P04626)
- T1 construct: human epidermal growth factor receptor 2 (HER2), extracellular domain; also called HER2/ECD
- ASSAY_TEXT: SPR; BIAcore T200; HER2/ECD immobilised on a CM5 chip by amine coupling to 1000 RU; IgG flowed in PBST (0.05% Tween 20) at 30 uL/min; regeneration 10 mM glycine pH 1.5; global fit to a 1:1 binding model
- TEST_CONTEXT: both partners purified
kon listing for selected binders.
Just the number please, in M⁻¹ s⁻¹, no unit attached.

INSERT INTO assay_data (binder, endpoint, assay_value) VALUES
  ('M41 IgG (mouse anti-HER2/ECD) (antibody, V domains shown, mouse VL; L49~L53 YYTSG; L91~L96 VNTLPY; mouse VH; H50~H58 NFHPYNDYTN; H96~H100B HDGYYGA; recombinant IgG from a scFv of an immunized mouse''s phage library; source: HEK293-F, transient transfection, purified (Protein A, Superdex 200)) VH: EVQLQQSGAELVKPGASVKMSCKAFGYTFTTYPIEWMKQNHGKSLEWIGNFHPYNDYTNYNEKFKGKAKLTVEKSSTTVYLELSRLTSDDSAVYYCARRHDGYYGAMDYWGQGTSVTVSS VL: DIQMTQTTSSLSASLGDRVTISCRTSQDISNYLNWYQQKPNGTIKLLIYYTSGLYSGVPSRFSGSGSGADYSLTISNVEQEDIATYFCQQVNTLPYTFGGGTKLELK', 'kon', 671000),
  ('GH2-54 IgG (antibody, V domains shown, source: HEK293-F, transient transfection, purified (Protein A, Superdex 200)) VH: EVQLVESGGGLVQPGGSLRLSCAASGFTISDGSIHWVRQAPGKGLEWVAFIGPYWGFTYYADSVKGRFTISADTSKNTAYLQMNSLRAEDTAVYYCARFVNWVHYGMDYWGQGTLVTVSS VL: DIQMTQSPSSLSASVGDRVTITCRASQDVNDNVAWYQQKPGKAPKLLIFGSSSLYSGVPSRFSGSGSGTDFTLTISSLQPEDFATYYCQQGWNYPFTFGQGTKVEIK', 'kon', 339000);

[in] Fill in the blank: the reported kon of GH2-81 IgG (antibody, V domains shown, source: HEK293-F, transient transfection, purified (Protein A, Superdex 200)) VH: EVQLVESGGGLVQPGGSLRLSCAASGFTINDYGIHWVRQAPGKGLEWVAGIGPFGGYTSYADSVKGRFTISADTSKNTAYLQMNSLRAEDTAVYYCARFGVLFDGVMDYWGQGTLVTVSS VL: DIQMTQSPSSLSASVGDRVTITCRASQDVNDGVAWYQQKPGKAPKLLISFTTGLYSGVPSRFSGSGSGTDFTLTISSLQPEDFATYYCQQYYNWPITFGQGTKVEIK is ____.
[out] 975000

[in] Same for M32 IgG (mouse anti-HER2/ECD) (antibody, V domains shown, mouse VL; L49~L53 YSASN; L91~L96 YSSYPL; mouse VH; H50~H58 WIDPENGNTI; H96~H100B YYGSRVL; recombinant IgG from a scFv of an immunized mouse's phage library; source: HEK293-F, transient transfection, purified (Protein A, Superdex 200)) VH: EVQLVESGAELVRPGALVKLSCKASGFNIKDYFMYWVKQRPEQGLEWVGWIDPENGNTIYDPKFQGKASITADTSSNTAYLQLSSLTSEDTAVYYCTRGYYGSRVLAMDYWGQGTSVTVSS VL: GIELTQSQKFMSTSVGDRVSITCKASQNVGTAVAWYQQKPGQSPKLLIYSASNRYTGVPDRFTGSGSGTDFTLTISNMQSEDLADYFCQQYSSYPLAFGGGTKLEIK
[out] 294000

[in] GH2-65 IgG (antibody, V domains shown, source: HEK293-F, transient transfection, purified (Protein A, Superdex 200)) VH: EVQLVESGGGLVQPGGSLRLSCAASGFTIDDWGIHWVRQAPGKGLEWVAWIWPYWGYTFYADSVKGRFTISADTSKNTAYLQMNSLRAEDTAVYYCARFLDWNNNWMDYWGQGTLVTVSS VL: DIQMTQSPSSLSASVGDRVTITCRASQDVSGWVAWYQQKPGKAPKLLISSASFLYSGVPSRFSGSGSGTDFTLTISSLQPEDFATYYCQQYYDFPVTFGQGTKVEIK ?
[out] 350000

[in] Next binder: GH2-78 IgG (antibody, V domains shown, source: HEK293-F, transient transfection, purified (Protein A, Superdex 200)) VH: EVQLVESGGGLVQPGGSLRLSCAASGFTINNWGIHWVRQAPGKGLEWVAGIGPYGGYTSYADSVKGRFTISADTSKNTAYLQMNSLRAEDTAVYYCARFGVIIDGIMDYWGQGTLVTVSS VL: DIQMTQSPSSLSASVGDRVTITCRASQDVNNSVAWYQQKPGKAPKLLISWPTGLYSGVPSRFSGSGSGTDFTLTISSLQPEDFATYYCQQYYSWPITFGQGTKVEIK
[out] 33000

[in] Now give it for GH2-96 IgG (antibody, V domains shown, source: HEK293-F, transient transfection, purified (Protein A, Superdex 200)) VH: EVQLVESGGGLVQPGGSLRLSCAASGFTISGYGIHWVRQAPGKGLEWVAGIGPFWGYTFYADSVKGRFTISADTSKNTAYLQMNSLRAEDTAVYYCARFGHIVDGLMDYWGQGTLVTVSS VL: DIQMTQSPSSLSASVGDRVTITCRASQDVNGGVAWYQQKPGKAPKLLIYGSSWLYSGVPSRFSGSGSGTDFTLTISSLQPEDFATYYCQQYFDWPITFGQGTKVEIK too.
[out] 254000

[in] And then GH2-91 IgG (antibody, V domains shown, source: HEK293-F, transient transfection, purified (Protein A, Superdex 200)) VH: EVQLVESGGGLVQPGGSLRLSCAASGFTINNFGIHWVRQAPGKGLEWVASIGPFWGYTSYADSVKGRFTISADTSKNTAYLQMNSLRAEDTAVYYCARFGNDYDGVMDYWGQGTLVTVSS VL: DIQMTQSPSSLSASVGDRVTITCRASHDVGWGVAWYQQKPGKAPKLLISWPTYLYSGVPSRFSGSGSGTDFTLTISSLQPEDFATYYCQQYFSYPITFGQGTKVEIK , what is it?
[out] 2.75e+06

[in] // next record GH2-95 IgG (antibody, V domains shown, source: HEK293-F, transient transfection, purified (Protein A, Superdex 200)) VH: EVQLVESGGGLVQPGGSLRLSCAASGFTIDSWGIHWVRQAPGKGLEWVAGIGPFWGYTSYADSVKGRFTISADTSKNTAYLQMNSLRAEDTAVYYCARFGIHFDGIMDYWGQGTLVTVSS VL: DIQMTQSPSSLSASVGDRVTITCRASQDVSGGVAWYQQKPGKAPKLLIFGSTWLYSGVPLRFSGSGSGTDFTLTISSLQPEDFATYYCQQYYDWPLTFGQGTKVEIK
[out] 54700

[in] What would you report for GH2-3 IgG (antibody, V domains shown, source: HEK293-F, transient transfection, purified (Protein A, Superdex 200)) VH: EVQLVESGGGLVQPGGSLRLSCAASGFTISGGWIHWVRQAPGKGLEWVAGIWPSGGSTSYADSVKGRFTISADTSKNTAYLQMNSLRAEDTAVYYCARFYFGFGDLMDYWGQGTLVTVSS VL: DIQMTQSPSSLSASVGDRVTITCRASQDVNNNVAWYQQKPGKAPKLLIYGARYLYSGVPSRFSGSGSGTDFTLTISSLQPEDFATYYCQQFGGGPLTFGQGTKVEIK ?
[out] 242000
